Test system: differentiated 3T3-L1 mouse adipocyte cells
assay method text: Adipocyte glucose consumption in differentiated 3T3-L1 mouse adipocyte cells (loss of glucose from medium, colorimetric)
Format: cell-based
condition description: compound 10 μM, 22 to 24 hours, differentiated 3T3-L1 adipocytes, compound/DMSO, read-out: Glucose consumption (fold change) Mean
Method: Activity of compounds on adipocyte glucose consumption was tested in differentiated 3T3-L1 mouse adipocyte cells. […] Glucose concentration in the supernatants was determined using a colorimetric assay (Glucose Assay Kit I, Eton Biosciences). Glucose consumption in compound and vehicle treated cells was measured as loss of glucose from the culture medium and represented as mean fold change (compound/DMSO) t standard deviation (SD).
reported endpoint: fold induction at 10 µM
Respond with the number and no other words.

Illustrative cases are given below, each with its answer.
INSERT INTO assay_data (compound, reported_result) VALUES
  ('CCCC1CCc2c(c3cccc(C(=O)O)c3n2Cc2cccc(C(N)=O)c2)C1 (stereo not shown)', 1.1),
  ('CCCCCC1CCCCc2c1c1cccc(C(=O)O)c1n2Cc1cccc(C(N)=O)c1 (stereo not shown)', 1.27),
  ('CCCCC1CCCc2c(n(Cc3cccc(C#N)c3)c3c(C(=O)O)cccc23)C1 (stereo not shown)', 1.29),
  ('N#Cc1cccc(Cn2c3c(c4cccc(C(=O)O)c42)C(CCc2ccccc2)CCC3)c1 (stereo not shown)', 1.1),
  ('CCC1CCCc2c(n(Cc3cccc(C#N)c3)c3c(C(=O)O)cccc23)C1 (stereo not shown)', 1.16);

Report fold induction at 10 µM for CCCC1CCc2c(c3cccc(C(=O)O)c3n2Cc2cccc(C#N)c2)C1 (stereo not shown) tested on differentiated 3T3-L1 mouse adipocyte cells.
1.2

Report fold induction at 10 µM for CCCC1CCCCc2c1c1cccc(C(=O)O)c1n2Cc1cccc(C#N)c1 (stereo not shown) tested on differentiated 3T3-L1 mouse adipocyte cells.
1.18

Report fold induction at 10 µM for CCC1CCCc2c1c1cccc(C(=O)O)c1n2Cc1cccc(C(=O)O)c1 (stereo not shown) tested on differentiated 3T3-L1 mouse adipocyte cells.
1.06

Report fold induction at 10 µM for CCCCCCC1CCCc2c(n(Cc3cccc(C(=O)O)c3)c3c(C(=O)O)cccc23)C1 (stereo not shown) tested on differentiated 3T3-L1 mouse adipocyte cells.
1.15

Report fold induction at 10 µM for CCCCCCC1CCc2c(n(Cc3ccccc3C#N)c3c(C(=O)O)cccc23)C1 (stereo not shown) tested on differentiated 3T3-L1 mouse adipocyte cells.
1.13

Sourced from patent US20230331673A1
